Measured values drawn from the supplement of paper PMC10126150 for this set.

switch fluorescence ratio overview
Test system: ATP;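 note: ATP exposure 15 min at 22 °C before imaging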
test-description: switch fluorescence ratio, 500 uM ATP over buffer (Cy3 cluster intensity, sum of 5 cycles each) (fold (ratio)); higher = stronger signal-on switching upon ATP binding; sequences stand for … in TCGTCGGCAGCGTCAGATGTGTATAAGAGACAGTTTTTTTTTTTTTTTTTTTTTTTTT…TC
measurement-context: aptamer strand: ATP DNA aptamer (quencher-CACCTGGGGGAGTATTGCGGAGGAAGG + anchor), 100 nM annealed; ATP concentration: 500 uM
Respond with the number and no other words.

GGGAAAATTA    0.997
AGGGAAAAAG    1.02
TGAGATTTAG    0.988

Query: Report switch fluorescence ratio for GGGAGAATGG please.
Reply: 0.98

Query: // lookup switch fluorescence ratio for TAGAAGAAGG
Reply: 0.984

Query: So what's the measured switch fluorescence ratio for this one? TGTTGAAGGG
Reply: 1.01

Query: Look up switch fluorescence ratio: TAGGTGAAGG
Reply: 1

Query: Which switch fluorescence ratio is listed for GTGGGTAGTT ?
Reply: 0.99

Query: # get_value(readout='switch fluorescence ratio', item= GTGATAATGT )
Reply: 0.981

Query: May I ask what switch fluorescence ratio has been recorded for AGGGAGGGTT ?
Reply: 1

Query: What value of switch fluorescence ratio has been reported for the following sequence? AAAGGGGGGC
Reply: 1

Query: Sample TTAGGGGGT — what was its switch fluorescence ratio?
Reply: 0.976

* * *

Tested on: ATP;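 note: ATP exposure 15 min at 22 °C before imaging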
test-description: switch fluorescence ratio, 500 uM ATP over buffer (Cy3 cluster intensity, sum of 5 cycles each) (fold (ratio)); higher = stronger signal-on switching upon ATP binding; sequences stand for … in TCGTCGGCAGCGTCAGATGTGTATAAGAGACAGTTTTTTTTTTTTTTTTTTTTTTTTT…TC
measurement-context: aptamer strand: ATP DNA aptamer (quencher-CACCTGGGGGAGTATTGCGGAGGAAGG + anchor), 100 nM annealed; ATP concentration: 500 uM
Recorded switch fluorescence ratio values for a group of sequences are listed next.
Respond with the number and no other words.

Solved entries:
CGGGGTAGTT    1.01
AAGAAGACGG    1.23
GAGATATGAG    1.02
GGTGGTTGGA    1.02
CAACGCGCGG    0.995
TTGATGACGG    0.987
GAAGTAGCGA    1.05
GGGGGTACCG    0.977

Query: So what does the record say about switch fluorescence ratio for TCGTGGCATA ?
Reply: 1.11

Query: Could you share which switch fluorescence ratio value was measured for CGGGGTATCT ?
Reply: 0.979

Query: State the recorded switch fluorescence ratio for this entry: GAATTTGGGT
Reply: 0.98

Query: What switch fluorescence ratio value was documented for this sequence, CTATGCAATT ?
Reply: 3.33

Query: Requested read-out: switch fluorescence ratio. Entry: GCGCTCGTCG
Reply: 1.07

Query: May I ask what switch fluorescence ratio has been recorded for TCATCATTTT ?
Reply: 0.996

Query: Which switch fluorescence ratio is listed for TGCATTCTGA ?
Reply: 1.02

Query: Query (sequence): GGGGTGAGAA ; field requested: switch fluorescence ratio
Reply: 1.02

Query: Recorded switch fluorescence ratio for GATTGCCGCG , please?
Reply: 1

Query: I am curious: what switch fluorescence ratio value has been reported for TTTGCAAGGG ?
Reply: 1.81

Query: Dear colleague, I am looking for the recorded switch fluorescence ratio of the following sequence: CAGATTCGAG
Reply: 1.01

Query: What value of measured switch fluorescence ratio is listed for TACGCCGGTA ?
Reply: 0.961

Query: Which switch fluorescence ratio value is on record for GTTCGTTAGG ?
Reply: 1.02

Query: Given the sequence TGGAGGTTAG , what is its reported switch fluorescence ratio?
Reply: 1.02

Query: Sample CTGCATAGGT — what was its switch fluorescence ratio?
Reply: 1.31

Query: // switch fluorescence ratio lookup, key: TTAAAAGTAG
Reply: 1

Query: Fill in: switch fluorescence ratio of CCCGGCGAGT is ___
Reply: 1.08

Query: GET /values?readout=switch fluorescence ratio&item= GGTATCAGGG
Reply: 0.999

Query: What does the record list as switch fluorescence ratio for TGTTTTCCCT ?
Reply: 0.979

Query: Which switch fluorescence ratio is listed for GAATTCTATG ?
Reply: 0.997

Query: Suppose we examine the sequence TTAGACCGAA ; what switch fluorescence ratio value has been reported?
Reply: 1.03

Query: Could you share which switch fluorescence ratio value was measured for GGGTCAACGA ?
Reply: 1.03
